Cited source: ChEMBL document CHEMBL4118286

- Assay Details: Selectivity index, ratio of IC50 for electric eel AChE to IC50 for equine serum BChE
Activity calls are given as the source filed them. The calls are words filed in the database; no cut-off is given here.
Readout Label: Ratio IC50

>  <Compound>
COC(=O)c1cc2c3ccccc3n(CCCN(C)CCN(C)CCCn3c4ccccc4c4cc(C(=O)OC)nc(C)c43)c2c(C)n1

>  <Readout Label>
Ratio IC50

>  <Result>
6.4

$$$$
>  <Compound>
COC(=O)C1Cc2c([nH]c3ccccc23)CN1C(=O)CN1CCN(CC(=O)N2Cc3[nH]c4ccccc4c3CC2C(=O)OC)CC1 (centres undefined)

>  <Readout Label>
Ratio IC50

>  <Result>
inactive

$$$$
>  <Compound>
COC(=O)C1Cc2c([nH]c3ccccc23)C(C)N1 (centres undefined)

>  <Readout Label>
Ratio IC50

>  <Result>
inactive

$$$$
>  <Compound>
COC(=O)c1cc2c3ccccc3n(CCCN3CCN(CCCn4c5ccccc5c5cc(C(=O)OC)nc(-c6ccccc6)c54)CC3)c2c(-c2ccccc2)n1

>  <Readout Label>
Ratio IC50

>  <Result>
inactive

$$$$
>  <Compound>
COC(=O)c1cc2c3ccccc3n(CCCN(C)CCN(C)CCCn3c4ccccc4c4cc(C(=O)OC)nc(-c5ccccc5)c43)c2c(-c2ccccc2)n1

>  <Readout Label>
Ratio IC50

>  <Result>
184

$$$$
>  <Compound>
COC(=O)C1Cc2c([nH]c3ccccc23)C(c2ccccc2)N1C(=O)CCCN1CCN(CCCC(=O)N2C(C(=O)OC)Cc3c([nH]c4ccccc34)C2c2ccccc2)CC1 (centres undefined)

>  <Readout Label>
Ratio IC50

>  <Result>
inactive

$$$$
>  <Compound>
COC(=O)C1Cc2c([nH]c3ccccc23)CN1C(=O)CCN(C)CCN(C)CCC(=O)N1Cc2[nH]c3ccccc3c2CC1C(=O)OC (centres undefined)

>  <Readout Label>
Ratio IC50

>  <Result>
0.9

$$$$
>  <Compound>
COC(=O)C1Cc2c([nH]c3ccccc23)C(c2ccccc2)N1C(=O)CCN1CCN(CCC(=O)N2C(C(=O)OC)Cc3c([nH]c4ccccc34)C2c2ccccc2)CC1 (centres undefined)

>  <Readout Label>
Ratio IC50

>  <Result>
85.6

$$$$

// field: Ratio IC50; key: COC(=O)C1Cc2c([nH]c3ccccc23)C(C)N1C(=O)CN1CCN(CC(=O)N2C(C(=O)OC)Cc3c([nH]c4ccccc34)C2C)CC1 (centres undefined) ; value = inactive

// field: Ratio IC50; key: COC(=O)C1Cc2c([nH]c3ccccc23)C(C)N1C(=O)CCCN1CCN(CCCC(=O)N2C(C(=O)OC)Cc3c([nH]c4ccccc34)C2C)CC1 (centres undefined) ; value = 15.8

Record summary for COC(=O)C1Cc2c([nH]c3ccccc23)C(C)N1C(=O)CN(C)CCN(C)CC(=O)N1C(C(=O)OC)Cc2c([nH]c3ccccc23)C1C (centres undefined) : reported Ratio IC50 = 4.3

Ratio IC50 for COC(=O)c1cc2c3ccccc3n(CCCCN3CCN(CCCCn4c5ccccc5c5cc(C(=O)OC)nc(-c6ccccc6)c54)CC3)c2c(-c2ccccc2)n1 is inactive

Field Ratio IC50 (entry COC(=O)c1cc2c([nH]c3ccccc32)c(-c2ccccc2)n1 ) reads inactive

Entry COC(=O)c1cc2c3ccccc3n(CCCCN3CCN(CCCCn4c5ccccc5c5cc(C(=O)OC)nc(C)c54)CC3)c2c(C)n1 , Ratio IC50 reported as 1.2
